Just for reference, ChEMBL document CHEMBL4823251 is where these values come from.

Assay: Volume of distribution at steady state in C57Bl/6 mouse at 2 mg/kg, iv administered as single dose
Type: ADME, organism-based
Conditions: in vivo, read-out: Vdss
Measured Vd accompanies every entry in the list below.
Quick reminder: number only, in L/kg, skip the unit.

- compound: "O=c1cc(N2CCOCC2)cc(N2CCCCC[C@@H]2Cc2ccccc2)[nH]1"
  Vd [L/kg]: 3.4

Qu. // lookup Vd for "O=c1cc(N2CCOCC2)cc(N2C[C@H]3C[C@H]3[C@@H]2Cc2ccccc2)[nH]1"
Ans. 4.7

====

Target: Serine-protein kinase ATM (Homo sapiens)
Sequence (Q13315 whole entry): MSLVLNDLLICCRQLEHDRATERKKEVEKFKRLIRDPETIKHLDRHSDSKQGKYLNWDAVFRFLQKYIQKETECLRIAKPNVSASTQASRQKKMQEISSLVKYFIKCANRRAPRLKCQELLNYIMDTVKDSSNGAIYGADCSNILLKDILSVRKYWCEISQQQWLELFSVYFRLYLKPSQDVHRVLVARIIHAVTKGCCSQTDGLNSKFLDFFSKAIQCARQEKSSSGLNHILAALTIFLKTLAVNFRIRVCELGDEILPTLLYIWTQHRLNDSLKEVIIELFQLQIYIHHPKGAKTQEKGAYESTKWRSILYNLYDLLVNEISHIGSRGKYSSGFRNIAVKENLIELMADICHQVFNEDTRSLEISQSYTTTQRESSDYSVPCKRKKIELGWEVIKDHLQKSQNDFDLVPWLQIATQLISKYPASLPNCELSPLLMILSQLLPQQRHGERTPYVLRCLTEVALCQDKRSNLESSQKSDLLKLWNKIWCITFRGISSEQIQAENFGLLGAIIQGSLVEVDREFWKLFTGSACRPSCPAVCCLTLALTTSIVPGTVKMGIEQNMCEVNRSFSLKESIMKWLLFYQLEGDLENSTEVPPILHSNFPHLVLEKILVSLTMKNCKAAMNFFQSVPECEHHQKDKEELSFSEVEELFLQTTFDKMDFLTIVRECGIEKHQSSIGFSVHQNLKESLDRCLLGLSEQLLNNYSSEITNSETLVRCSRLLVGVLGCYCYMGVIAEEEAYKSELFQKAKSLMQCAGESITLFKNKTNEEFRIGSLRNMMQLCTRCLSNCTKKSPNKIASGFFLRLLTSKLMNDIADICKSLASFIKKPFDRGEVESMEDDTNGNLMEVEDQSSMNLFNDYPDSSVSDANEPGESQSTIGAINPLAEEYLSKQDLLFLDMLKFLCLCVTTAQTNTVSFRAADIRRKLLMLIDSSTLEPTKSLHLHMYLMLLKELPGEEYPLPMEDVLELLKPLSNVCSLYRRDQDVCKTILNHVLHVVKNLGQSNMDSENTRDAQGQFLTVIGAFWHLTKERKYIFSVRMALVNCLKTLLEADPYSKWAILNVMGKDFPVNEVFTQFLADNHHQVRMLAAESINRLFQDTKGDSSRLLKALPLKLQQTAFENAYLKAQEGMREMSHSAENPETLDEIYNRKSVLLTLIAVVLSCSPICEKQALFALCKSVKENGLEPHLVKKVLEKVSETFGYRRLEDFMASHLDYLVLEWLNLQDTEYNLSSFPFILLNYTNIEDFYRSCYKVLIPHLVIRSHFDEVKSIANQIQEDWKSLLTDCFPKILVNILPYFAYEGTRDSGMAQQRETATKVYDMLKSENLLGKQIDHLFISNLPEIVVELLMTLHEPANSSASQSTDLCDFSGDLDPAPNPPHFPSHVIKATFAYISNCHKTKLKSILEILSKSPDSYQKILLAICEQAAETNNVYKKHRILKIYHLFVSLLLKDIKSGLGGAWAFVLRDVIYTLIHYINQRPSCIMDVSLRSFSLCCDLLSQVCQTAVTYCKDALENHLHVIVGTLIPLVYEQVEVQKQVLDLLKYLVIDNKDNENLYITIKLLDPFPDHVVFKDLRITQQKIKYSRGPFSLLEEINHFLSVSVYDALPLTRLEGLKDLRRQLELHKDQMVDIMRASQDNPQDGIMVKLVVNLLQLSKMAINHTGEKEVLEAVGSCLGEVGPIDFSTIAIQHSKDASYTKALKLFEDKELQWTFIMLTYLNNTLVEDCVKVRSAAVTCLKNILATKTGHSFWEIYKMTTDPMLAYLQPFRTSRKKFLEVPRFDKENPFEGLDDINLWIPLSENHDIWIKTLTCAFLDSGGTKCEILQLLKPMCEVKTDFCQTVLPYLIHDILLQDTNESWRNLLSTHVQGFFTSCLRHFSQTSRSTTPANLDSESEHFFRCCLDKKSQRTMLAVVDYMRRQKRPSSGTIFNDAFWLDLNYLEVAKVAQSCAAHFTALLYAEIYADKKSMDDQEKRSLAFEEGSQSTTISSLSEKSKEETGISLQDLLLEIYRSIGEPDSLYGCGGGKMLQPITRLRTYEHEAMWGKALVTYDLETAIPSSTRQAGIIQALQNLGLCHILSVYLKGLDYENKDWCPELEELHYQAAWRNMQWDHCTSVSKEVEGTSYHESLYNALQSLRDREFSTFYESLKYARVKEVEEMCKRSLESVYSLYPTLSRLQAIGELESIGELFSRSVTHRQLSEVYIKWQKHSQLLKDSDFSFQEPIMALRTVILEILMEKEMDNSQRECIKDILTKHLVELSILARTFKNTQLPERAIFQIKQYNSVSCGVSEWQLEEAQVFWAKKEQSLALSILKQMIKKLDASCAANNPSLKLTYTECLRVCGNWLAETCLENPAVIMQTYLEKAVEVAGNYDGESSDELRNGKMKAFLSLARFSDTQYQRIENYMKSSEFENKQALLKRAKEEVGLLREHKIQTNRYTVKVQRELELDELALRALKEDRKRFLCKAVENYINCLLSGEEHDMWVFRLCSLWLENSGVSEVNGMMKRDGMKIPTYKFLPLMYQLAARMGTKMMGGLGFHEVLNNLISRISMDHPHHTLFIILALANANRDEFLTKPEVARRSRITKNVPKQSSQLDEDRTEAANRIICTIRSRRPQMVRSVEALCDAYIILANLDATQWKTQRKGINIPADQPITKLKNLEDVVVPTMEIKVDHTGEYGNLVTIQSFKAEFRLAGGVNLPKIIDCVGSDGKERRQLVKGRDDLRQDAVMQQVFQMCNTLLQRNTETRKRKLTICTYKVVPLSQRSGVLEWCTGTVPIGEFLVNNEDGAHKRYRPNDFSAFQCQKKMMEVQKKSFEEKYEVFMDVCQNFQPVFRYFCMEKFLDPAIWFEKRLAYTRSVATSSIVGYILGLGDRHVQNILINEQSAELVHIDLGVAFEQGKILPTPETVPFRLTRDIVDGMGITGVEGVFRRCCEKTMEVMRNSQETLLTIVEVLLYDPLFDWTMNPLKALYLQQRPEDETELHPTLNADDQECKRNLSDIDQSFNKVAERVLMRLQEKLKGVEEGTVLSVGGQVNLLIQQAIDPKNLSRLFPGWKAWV
Assay: Inhibition of full length recombinant FLAG-tagged human ATM assessed as decrease in p53 S15 phosphorylation using full length myc-tagged p53 as substrate incubated for 30 mins in presence of ATP by ELISA
pKi: −log10 of the molar value.
Everything with pKi lower than 8 is n; everything else, including exactly 8, is y.

Below are worked cases with known answers.
- molecule: "C[C@@H]1CN(c2cc(=O)[nH]c(N3C[C@@H]4C[C@@H]4[C@@H]3Cc3ccccc3)n2)CCO1"
  cat: "y"
- molecule: "Oc1cc(N2CCOCC2)nc(N2CCC[C@@H]2Cc2ccccc2)n1"
  cat: "y"
- molecule: "O=c1cc(N2CCOCC2)cc(N2CCC(Cc3ccccc3)C2)[nH]1 (stereo not drawn)"
  cat: "n"
- molecule: "O=c1cc(N2CCOCC2)cc(N2CCC[C@H]2Cc2ccccc2)[nH]1"
  cat: "n"
- molecule: "O=c1cc(N2CCOCC2)cc(N2CCCCC[C@@H]2Cc2ccccc2)[nH]1"
  cat: "y"
- molecule: "CO[C@@H]1CCN(c2cc(N3CCOCC3)cc(=O)[nH]2)[C@H]1Cc1ccccc1"
  cat: "n"

Qu. Identify whether the reported pKi of the following molecule is 8 or greater: "COc1ccc2c(c1)Cc1cccc(-c3cc(N4CCOCC4)nc(O)n3)c1S2"
Ans. n

====

Assay: Brain to plasma permeability coefficient, Kp in C57Bl/6 mouse at 2 mg/kg, iv administered as single dose
Type: ADME, organism-based
Settings: brain and plasma
Measured Kp accompanies every entry in the list below.
Would you mind answering with just the numeric figure?

- compound: "O=c1cc(N2CCOCC2)cc(N2C[C@H]3C[C@H]3[C@@H]2Cc2ccccc2)[nH]1"
  Kp: 0.23

Qu. // lookup Kp for "O=c1cc(N2CCOCC2)cc(N2CCCCC[C@@H]2Cc2ccccc2)[nH]1"
Ans. 0.41

====

Test: Bioavailability in C57Bl/6 mouse at 10 mg/kg, po or 0.8 mg/kg, iv
Format: ADME, organism-based
Settings: in vivo
measured metric: bioavailability (%)
Quick reminder: number only, in %, skip the unit.

Qu. // lookup bioavailability for "C[C@@H]1CCN(c2nc(N3CCOCC3)cc(=O)[nH]2)[C@H]1Cc1ccccc1"
Ans. 78

====

Assay: Volume of distribution at steady state in C57Bl/6 mouse at 0.8 mg/kg, iv administered as single dose
Type: ADME, organism-based
Conditions: in vivo, read-out: Vdss
measured metric: Vd (L/kg)
Quick reminder: number only, in L/kg, skip the unit.

Qu. // lookup Vd for "C[C@@H]1CCN(c2nc(N3CCOCC3)cc(=O)[nH]2)[C@H]1Cc1ccccc1"
Ans. 11

====

Molecular target: Serine-protein kinase ATM (Homo sapiens)
Assay: Inhibition of full length recombinant FLAG-tagged human ATM assessed as decrease in p53 S15 phosphorylation using full length myc-tagged p53 as substrate incubated for 30 mins in presence of ATP by ELISA
measured metric: pKi
In plain terms, pKi is the concentration in mol/L turned into minus its base-10 logarithm.

Reference set, count: 8
- compound: "O=c1cc(N2CCOCC2)nc(N2C[C@H]3C[C@H]3[C@@H]2Cc2ccccc2)[nH]1"
  pKi: 9.70
- compound: "C[C@@H]1CN(c2cc(=O)[nH]c(N3CCCCC[C@@H]3Cc3ccccc3)n2)CCO1"
  pKi: 9.00
- compound: "COc1ccc2c(c1)Cc1cccc(-c3cc(=O)cc(N4CCOCC4)[nH]3)c1S2"
  pKi: 6.96
- compound: "O=c1cc(N2CCOCC2)cc(N2CC[C@@H](F)[C@@H]2Cc2ccccc2)[nH]1"
  pKi: 8.52
- compound: "O=c1cc(N2CCOCC2)cc(N2C[C@H]3C[C@H]3[C@@H]2Cc2ccccc2)[nH]1"
  pKi: 8.70
- compound: "O=c1cc(N2CCOCC2)cc(N2CCCC2Cc2ccccc2)[nH]1 (racemic)"
  pKi: 7.52
- compound: "C[C@@H]1CN(c2cc(N3CCCCC[C@@H]3Cc3ccccc3)[nH]c(=O)c2)CCO1"
  pKi: 9.00
- compound: "O=c1cc(N2CCOCC2)nc(N2C[C@@H]3C[C@@H]3[C@@H]2Cc2ccccc2)[nH]1"
  pKi: 9.22

Qu. // lookup pKi for "O=c1cc(N2CCOCC2)cc(N2CCC[C@@H]2Cc2ccccc2)[nH]1"
Ans. 8.22

Qu. Try "O=c1cc(N2CCOCC2)cc(N2C[C@@H]3C[C@@H]3[C@@H]2Cc2ccccc2)[nH]1" next.
Ans. 9.52

Qu. Try "C[C@@H]1CN(c2cc(=O)[nH]c(N3C[C@H]4C[C@H]4[C@@H]3Cc3ccccc3)n2)CCO1" next.
Ans. 8.70

Qu. Try "C[C@@H]1CCN(c2nc(N3CCOCC3)cc(=O)[nH]2)[C@H]1Cc1ccccc1" next.
Ans. 9.40

Qu. Try "Oc1cc(N2CCC[C@@H]2Cc2ccccc2)nc(N2CCOCC2)n1" next.
Ans. 7.06

Qu. Try "COc1ccc2c(c1)Cc1cccc(-c3cc(N4CCOCC4)cc(=O)[nH]3)c1S2" next.
Ans. 8.40

Qu. Try "O=c1cc(N2CCOCC2)nc(N2CCCCC[C@@H]2Cc2ccccc2)[nH]1" next.
Ans. 10.00

Qu. Try "COc1ccc2c(c1)Cc1cccc(-c3cc(O)nc(N4CCOCC4)n3)c1S2" next.
Ans. 7.60

====

Molecular target: Phosphatidylinositol 3-kinase catalytic subunit type 3 (Homo sapiens, UniProt Q8NEB9)
Sequence (Q8NEB9 whole entry): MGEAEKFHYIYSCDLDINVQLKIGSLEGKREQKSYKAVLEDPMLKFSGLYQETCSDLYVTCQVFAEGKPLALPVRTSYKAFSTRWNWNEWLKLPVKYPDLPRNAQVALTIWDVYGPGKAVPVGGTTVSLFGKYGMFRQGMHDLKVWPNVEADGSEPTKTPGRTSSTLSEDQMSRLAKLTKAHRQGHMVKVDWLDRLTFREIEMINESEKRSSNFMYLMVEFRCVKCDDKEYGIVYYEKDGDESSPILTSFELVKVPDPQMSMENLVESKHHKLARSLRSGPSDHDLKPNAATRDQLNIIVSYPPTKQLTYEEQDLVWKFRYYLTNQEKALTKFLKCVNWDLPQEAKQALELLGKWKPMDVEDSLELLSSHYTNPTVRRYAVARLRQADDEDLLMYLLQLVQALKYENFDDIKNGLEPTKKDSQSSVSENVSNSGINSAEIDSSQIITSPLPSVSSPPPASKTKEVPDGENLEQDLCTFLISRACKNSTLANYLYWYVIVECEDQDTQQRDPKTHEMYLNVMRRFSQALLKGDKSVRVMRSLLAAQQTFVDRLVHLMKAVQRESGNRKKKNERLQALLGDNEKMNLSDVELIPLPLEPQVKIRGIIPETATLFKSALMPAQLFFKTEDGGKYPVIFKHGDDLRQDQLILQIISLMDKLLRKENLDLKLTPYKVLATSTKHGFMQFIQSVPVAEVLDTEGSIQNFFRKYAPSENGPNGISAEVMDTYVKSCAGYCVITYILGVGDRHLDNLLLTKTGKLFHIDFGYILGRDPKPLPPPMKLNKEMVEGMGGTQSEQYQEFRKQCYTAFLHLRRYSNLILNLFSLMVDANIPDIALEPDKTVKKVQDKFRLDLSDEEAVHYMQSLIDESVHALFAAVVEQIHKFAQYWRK
Assay: Inhibition of full length recombinant GST-tagged human VPS34 expressed in baculovirus expression system using PI/PS as substrate incubated for 60 mins in presence of ATP at Km concentration by luminescence assay
measured metric: log10 Ki (log10 of the value in nM)
Note: values are log10 of Ki expressed in nM.

- compound: "O=c1cc(N2CCOCC2)cc(N2CCCC[C@@H]2Cc2ccccc2)[nH]1"
  log10 Ki: 2.23
- compound: "O=c1cc(N2CCOCC2)cc(N2CC[C@@H](F)[C@@H]2Cc2ccccc2)[nH]1"
  log10 Ki: 2.04
- compound: "O=c1cc(N2CCOCC2)cc(N2CCC[C@@H]2Cc2ccccc2)[nH]1"
  log10 Ki: 0.95

Qu. // lookup log10 Ki for "O=c1cc(N2CCOCC2)nc(N2C[C@H]3C[C@H]3[C@@H]2Cc2ccccc2)[nH]1"
Ans. 1.32

Qu. Try "C[C@@H]1CN(c2cc(N3C[C@@H]4C[C@@H]4[C@@H]3Cc3ccccc3)[nH]c(=O)c2)CCO1" next.
Ans. 2.88

Qu. Try "O=c1cc(N2CCOCC2)cc(N2C[C@@H]3C[C@@H]3[C@@H]2Cc2ccccc2)[nH]1" next.
Ans. 0.60

Qu. Try "O=c1cc(N2CCOCC2)nc(N2CCCCC[C@@H]2Cc2ccccc2)[nH]1" next.
Ans. 0.90

Qu. Try O=c1cc(N2CCOCC2)cc(N2CCCC2Cc2ccccc2)[nH]1 (racemic) next.
Ans. 1.69

Qu. Try "COc1ccc2c(c1)Cc1cccc(-c3cc(N4CCOCC4)cc(=O)[nH]3)c1S2" next.
Ans. 2.11

Qu. Try "O=c1cc(N2CCOCC2)cc(N2CCC[C@H]2Cc2ccccc2)[nH]1" next.
Ans. 2.80

Qu. Try "O=c1cc(N2CCOCC2)cc(N2C[C@H]3C[C@H]3[C@@H]2Cc2ccccc2)[nH]1" next.
Ans. 1.99

====

Test: Intrinsic clearance in C57Bl/6 mouse pooled liver microsomes at 1 uM measured up to 40 mins in presence of NADPH by LC-MS/MS analysis
Assay type: ADME, Microsome
Details: read-out: CLH
measured metric: CLint scaled at 1 µM

- compound: "O=c1cc(N2CCOCC2)cc(N2C[C@H]3C[C@H]3[C@@H]2Cc2ccccc2)[nH]1"
  CLint scaled at 1 µM: "< 75 mL/min/kg"
- compound: "CO[C@@H]1CCN(c2cc(N3CCOCC3)cc(=O)[nH]2)[C@H]1Cc1ccccc1"
  CLint scaled at 1 µM: "< 65 mL/min/kg"
- compound: "O=c1cc(N2CCOCC2)cc(N2CC[C@@H](F)[C@@H]2Cc2ccccc2)[nH]1"
  CLint scaled at 1 µM: "< 65 mL/min/kg"
- compound: "O=c1cc(N2CCOCC2)cc(N2CCC(F)(F)[C@@H]2Cc2ccccc2)[nH]1"
  CLint scaled at 1 µM: "< 65 mL/min/kg"

Please look at the following compound next.
Qu. // lookup CLint scaled at 1 µM for "O=c1cc(N2CCOCC2)cc(N2C[C@@H]3C[C@@H]3[C@@H]2Cc2ccccc2)[nH]1"
Ans. 177 mL/min/kg
